- experiment: modulators of CIT2-GFP expression in yeast, confirmation, S. cerevisiae, GFP fusion, cherry picks, mother/daughter gates (AID 2274)
- applied-conditions: S. cerevisiae CIT2-GFP strain, flow cytometry, 3 h; measured here: daughter cell gate; at 10 µM; stronger effect = higher value
Below is a list of entries, each paired with its recorded GFP response, % of DMSO value.
Report the value in % with no unit label.

O=C(Oc1c(Cl)cc(Cl)c2cccnc12)c1ccco1 ... 86.6

IN: Hello, please tell me recorded GFP response, % of DMSO for this one: CCOC(=O)c1c(C)[nH]c(C)c1C(=O)COC(=O)c1cc2ccccc2cc1O
OUT: 96.8

IN: Complete the entry with GFP response, % of DMSO for Cc1noc2ncnc(Sc3ccc(Cl)cc3)c12
OUT: 101

IN: Indicate its recorded GFP response, % of DMSO; the molecule in question is COc1ccccc1Oc1ccc(S(=O)(=O)N2CCCC2)cc1
OUT: 94.8

IN: Please supply the value of reported GFP response, % of DMSO for the item O=C(O)c1ccc(N/N=C/c2c(F)cccc2Cl)cc1
OUT: 92.7

IN: Provide GFP response, % of DMSO value for the following molecule: Cc1ccc(C(=O)Oc2oc(-c3ccccc3)nc2C=Nc2ccc(N(C)C)cc2)cc1
OUT: 114

IN: Identify the reported GFP response, % of DMSO for the following entry. O=c1[nH]c2c(=O)[nH]cnc2nc1-c1ccccc1
OUT: 86.6

IN: Report measured GFP response, % of DMSO; entry is Cn1cc([N+](=O)[O-])c(C(=O)Nc2nc(-c3ccc(Cl)cc3)cs2)n1
OUT: 97.6

IN: Recall and state the measured GFP response, % of DMSO for Cc1ccccc1Oc1ncnc2oc(-c3ccccc3)cc12 .
OUT: 99.1

IN: Name the recorded GFP response, % of DMSO of the molecule listed here: O=C(CCc1ccc(S(=O)(=O)N2CCOCC2)cc1)Oc1ccccc1
OUT: 110

IN: Please report GFP response, % of DMSO for the following molecule: Cc1nn2c(N3CCN(C(=O)c4ccco4)CC3)cc(C(C)(C)C)nc2c1-c1ccccc1
OUT: 97.2

IN: Determine from records and report GFP response, % of DMSO for O=C1C(CSCc2ccccc2)NC(=S)N1c1ccccc1 (centres undefined)
OUT: 102

IN: Answer with reported GFP response, % of DMSO of O=C(CCC(F)(F)F)N1CCC(CO)(CCc2ccccc2)CC1
OUT: 106

IN: Note GFP response, % of DMSO for the molecule shown: Cc1onc(-c2c(Cl)cccc2Cl)c1NC(=O)NNc1c(Cl)cncc1Cl
OUT: 101
